system: human colon carcinoma cell line HCT116; experiment: Caspase cascade activation in HCT116 cells; assay type: cell-based; details: HCT-116, 48 h incubation, read-out: caspase potency EC50 HCT116
pEC50: −log10 of the molar value.
A collection of compounds and their measured pEC50

COc1cc(-c2nnc3sc(-c4ccc(C)c([N+](=O)[O-])c4)nn23)cc(OC)c1OC :: < 5.00
COc1ccc(-c2nn3c(-c4cc(OC)c(OC)c(OC)c4)nnc3s2)cc1 :: < 5.00

Continue with the compound presented below.
Q: Given COc1ccccc1-c1nnc2sc(-c3ccc(OC)c([N+](=O)[O-])c3)nn12 , respond with its pEC50.
Ans: < 5.00
